target: EGFR (Homo sapiens, UniProt P00533)
Sequence (P00533 25-1210): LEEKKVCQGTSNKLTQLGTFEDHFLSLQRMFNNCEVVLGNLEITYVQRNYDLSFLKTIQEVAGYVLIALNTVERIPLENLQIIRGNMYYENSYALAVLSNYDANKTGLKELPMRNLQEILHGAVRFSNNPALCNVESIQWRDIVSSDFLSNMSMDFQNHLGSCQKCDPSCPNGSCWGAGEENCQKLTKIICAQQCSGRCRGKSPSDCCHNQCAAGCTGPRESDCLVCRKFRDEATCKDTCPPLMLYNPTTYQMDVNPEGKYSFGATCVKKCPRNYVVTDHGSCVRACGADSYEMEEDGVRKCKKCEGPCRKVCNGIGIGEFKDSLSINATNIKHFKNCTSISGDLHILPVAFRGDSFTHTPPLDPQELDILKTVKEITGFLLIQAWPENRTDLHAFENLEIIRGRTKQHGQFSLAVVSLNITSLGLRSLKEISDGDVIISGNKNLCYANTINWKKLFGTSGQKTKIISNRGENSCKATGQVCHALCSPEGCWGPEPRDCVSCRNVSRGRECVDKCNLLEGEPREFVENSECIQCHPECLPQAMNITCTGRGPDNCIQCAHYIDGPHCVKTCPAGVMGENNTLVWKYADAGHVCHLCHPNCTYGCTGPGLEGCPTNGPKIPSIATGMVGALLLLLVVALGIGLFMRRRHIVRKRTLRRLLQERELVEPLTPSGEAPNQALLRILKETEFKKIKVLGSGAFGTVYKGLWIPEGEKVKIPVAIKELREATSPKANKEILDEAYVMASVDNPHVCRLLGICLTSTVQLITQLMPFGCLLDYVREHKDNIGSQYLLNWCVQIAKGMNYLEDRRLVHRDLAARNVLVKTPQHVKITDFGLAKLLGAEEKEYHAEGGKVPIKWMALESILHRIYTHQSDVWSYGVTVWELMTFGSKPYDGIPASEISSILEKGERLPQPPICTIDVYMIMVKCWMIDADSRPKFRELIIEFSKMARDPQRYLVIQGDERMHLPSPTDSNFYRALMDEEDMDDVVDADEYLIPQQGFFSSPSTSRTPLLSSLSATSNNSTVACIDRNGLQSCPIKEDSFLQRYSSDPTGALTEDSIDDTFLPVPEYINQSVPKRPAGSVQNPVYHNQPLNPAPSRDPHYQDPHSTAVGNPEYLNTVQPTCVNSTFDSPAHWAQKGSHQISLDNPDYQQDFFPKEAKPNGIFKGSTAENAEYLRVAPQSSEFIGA
pKd: −log10 of the molar value.
Measured pKd, listed per entry for reference.

{"Compound": "COC(=O)c1cccc(Nc2ncnc3[nH]c(-c4ccc(O)cc4)cc23)c1", "pKd": "6.00 to 7.00"}
{"Compound": "COc1ccc(C(C)Nc2ncnc3[nH]c(-c4cccc(OC)c4)cc23)cc1 (stereo not drawn)", "pKd": "5.00 to 6.00"}
{"Compound": "COc1ccc(-c2cc3c(Nc4cccc(C(=O)O)c4)ncnc3[nH]2)cc1", "pKd": "> 7.00"}
{"Compound": "COc1ccc(-c2cc3c(Nc4cccc(C)c4)ncnc3[nH]2)cc1", "pKd": "> 7.00"}
{"Compound": "COc1ccc(-c2cc3c(NC(C)c4ccccc4)ncnc3[nH]2)cc1 (stereo not drawn)", "pKd": "6.00 to 7.00"}
{"Compound": "C[C@H](Nc1ncnc2[nH]c(-c3ccc(Br)cc3)cc12)c1ccccc1", "pKd": "> 7.00"}
{"Compound": "O=C(O)c1cccc(Nc2ncnc3[nH]c(-c4ccc(O)cc4)cc23)c1", "pKd": "5.00 to 6.00"}
{"Compound": "COc1cccc(-c2cc3c(Nc4ccc(Cl)c(Cl)c4)ncnc3[nH]2)c1", "pKd": "> 7.00"}
{"Compound": "Cc1cc(C)cc(Nc2ncnc3[nH]c(-c4ccc(O)cc4)cc23)c1", "pKd": "> 7.00"}

----------
Measured pIC50, listed per entry for reference.
target: EGFR (Homo sapiens, UniProt P00533); assay: EGFR autophosphorylation (tyrosine 1173) inhibition assay in A431 cells; assay type: cell-based; parameters: 4×10^4 A431 cells/well in a 96-well culture plate; endogenous in cells; host or cells: A431; conditions: Epidermoid Carcinoma Cell Line A431; EGF-induced phosphorylation of tyrosine 1173
pIC50: −log10 of the molar value.
Test readout: pIC50

{"Molecule": "CC(Nc1ncnc2oc(-c3ccccc3)c(-c3ccccc3)c12)c1ccccc1 (stereo not drawn)", "Test readout": "pIC50", "Measured value": "6.00 to 7.00"}
{"Molecule": "COc1ccc(-c2cc3c(Nc4cccc(C)c4)ncnc3[nH]2)cc1", "Test readout": "pIC50", "Measured value": "> 7.00"}
{"Molecule": "Cc1cc(C)cc(Nc2ncnc3[nH]c(-c4ccc(Br)cc4)cc23)c1", "Test readout": "pIC50", "Measured value": "6.00 to 7.00"}
{"Molecule": "C[C@H](Nc1ncnc2c1[nH]c1ccccc12)c1ccccc1", "Test readout": "pIC50", "Measured value": "6.00 to 7.00"}
{"Molecule": "COc1ccc(-c2cc3c(N[C@@H](C)c4ccccc4)ncnc3n2C(C)C)cc1", "Test readout": "pIC50", "Measured value": "6.00 to 7.00"}
{"Molecule": "C[C@@H](Nc1ncnc2oc(-c3ccccc3)c(-c3ccccc3)c12)c1ccccc1", "Test readout": "pIC50", "Measured value": "6.00 to 7.00"}

----------
target: EGFR (Homo sapiens, UniProt P00533); assay: EGFR autophosphorylation (tyrosine 1173) inhibition assay in lung cancer cell line A459; format: cell-based; design: 3.6×10^5 A549 cells/well in a 24-well culture plate; endogenous in cells; conditions: EGF-induced phosphorylation of tyrosine 1173
pIC50: −log10 of the molar value.
Measured pIC50, listed per entry for reference.
Test readout: pIC50

{"Compound": "COc1ccc(-c2cc3c(N[C@@H](C)c4ccccc4)ncnc3n2C(C)C)cc1 [Compound D10]", "Test readout": "pIC50", "Measured value": "> 7.00"}
{"Compound": "C[C@H](Nc1ncnc2c1[nH]c1ccccc12)c1ccccc1 [Compound C2]", "Test readout": "pIC50", "Measured value": "5.00 to 6.00"}
